Below are compounds with their IC50 as measured on Full length DGKα (D21-10BG, SignalChem) (Homo sapiens).
Sequence (P23743 whole entry): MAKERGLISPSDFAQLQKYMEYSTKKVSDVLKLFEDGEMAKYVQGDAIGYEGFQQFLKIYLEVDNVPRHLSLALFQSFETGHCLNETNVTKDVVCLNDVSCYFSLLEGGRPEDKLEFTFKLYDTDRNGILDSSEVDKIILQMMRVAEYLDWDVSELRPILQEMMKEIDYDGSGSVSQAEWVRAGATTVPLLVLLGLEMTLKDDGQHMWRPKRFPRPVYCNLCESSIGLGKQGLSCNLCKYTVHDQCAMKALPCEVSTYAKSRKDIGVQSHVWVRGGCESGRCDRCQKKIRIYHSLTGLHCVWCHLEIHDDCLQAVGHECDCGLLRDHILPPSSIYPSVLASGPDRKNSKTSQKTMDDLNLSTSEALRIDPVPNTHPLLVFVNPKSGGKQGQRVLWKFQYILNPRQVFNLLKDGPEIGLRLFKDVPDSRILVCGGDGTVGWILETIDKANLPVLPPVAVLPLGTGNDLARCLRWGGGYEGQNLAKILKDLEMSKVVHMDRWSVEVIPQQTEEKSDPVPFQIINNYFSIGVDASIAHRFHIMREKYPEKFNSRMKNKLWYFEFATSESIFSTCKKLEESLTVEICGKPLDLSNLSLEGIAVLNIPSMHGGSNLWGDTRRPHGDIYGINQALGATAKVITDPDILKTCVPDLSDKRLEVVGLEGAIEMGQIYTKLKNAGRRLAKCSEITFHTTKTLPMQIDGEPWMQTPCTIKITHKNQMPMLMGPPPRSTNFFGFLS

- compound: "Cc1ccc(C(C)N2C[C@H](C)N(c3nc(=O)n(C)c4c3nc(CC#N)n4C)C[C@H]2C)c(C(F)(F)F)c1 (single isomer, unassigned) [Compound A32a]"
  IC50: "> 10 µM"
- compound: "CCn1c(CC#N)nc2c(N3C[C@@H](C)N(C(C)c4ccc(C)c(C(F)(F)F)c4)C[C@@H]3C)nc(=O)n(C)c21 (stereo partly drawn)"
  IC50: "> 150 µM"
- compound: "CCn1c(CC#N)nc2c(N3C[C@@H](C)N(C(C)c4ccc(F)cc4C(F)(F)F)C[C@@H]3C)nc(=O)n(C)c21 (single isomer, unassigned) [Compound A35a]"
  IC50: "> 150 µM"

---

- assay_system: Full length DGKα (D21-10BG, SignalChem) (Homo sapiens)
pIC50: −log10 of the molar value.
measurement_kind: pIC50

- compound: "COC[C@H]1CN(C(C)c2ccc3ncc(C)nc3c2)[C@H](C)CN1c1nc(=O)n(C)c2c1nc(CC#N)n2C (single isomer, unassigned) [Compound A13a]"
  result: "< 3.82"
- compound: "COC[C@H]1CN(C(C)c2ccc(F)cc2C(F)(F)F)[C@H](C)CN1c1nc(=O)n(C)c2c1nc(CC#N)n2C (single isomer, unassigned) [Compound A10a]"
  result: "< 5.00"
- compound: "CCn1c(CC#N)nc2c(N3C[C@@H](C)N(C(C)c4ccc5ccc(C)nc5c4)C[C@@H]3C)nc(=O)n(C)c21 (stereo partly drawn) [Compound A90]"
  result: "< 3.82"
- compound: "CC[C@H]1CN(C(C)c2ccc(F)cc2C(F)(F)F)[C@H](CC)CN1c1nc(=O)n(C)c2c1nc(CC#N)n2C (single isomer, unassigned) [Compound A34a]"
  result: "< 5.00"
- compound: "CCn1c(CC#N)nc2c(N3C[C@@H](C)N(C(C)c4ccc5ncc(C(F)(F)F)nc5c4)C[C@@H]3C)nc(=O)n(C)c21 (stereo partly drawn) [Compound A54]"
  result: "< 3.82"
- compound: "CCn1c(CC#N)nc2c(N3C[C@@H](C)N(C(C)c4cc(F)c5c(c4)OC(C)(C)O5)C[C@@H]3C)c(F)c(=O)n(C)c21 (stereo partly drawn) [Compound A189]"
  result: "< 3.82"
- compound: "CC(c1ccc(F)cc1C(F)(F)F)N1C[C@H](C)N(c2cc(=O)n(C)c3sc(CC#N)nc23)C[C@H]1C (stereo partly drawn) [Compound A195]"
  result: "< 3.82"
- compound: "CCn1c(CC#N)nc2c(N3C[C@@H](C)N(C(C)c4ccnc(C(=O)NC)c4)C[C@@H]3C)nc(=O)n(C)c21 (stereo partly drawn) [Compound A130]"
  result: "< 3.82"
- compound: "CC[C@@H]1CN(c2nc(=O)n(CC)c3c2nc(CC#N)n3C)[C@@H](C)CN1C(C)c1ccc2c(c1)OC(C)(C)CO2 (single isomer, unassigned) [Compound A66b]"
  result: 5.16
- compound: "CC(c1ccc2c(c1)OCCO2)N1C[C@H](C)N(c2nc(=O)n(C)c3c2nc(CC#N)n3C)C[C@H]1C (single isomer, unassigned) [Compound A58b]"
  result: 4.04
- compound: "CCn1c(CC#N)nc2c(N3C[C@@H](C)N(C(C)c4ccc(F)c5c4OC(C)(C)O5)C[C@@H]3C)nc(=O)n(C)c21 (single isomer, unassigned) [Compound A185b]"
  result: 4.08
- compound: "CCn1c(CC#N)nc2c(N3C[C@@H](C)N(C(C)c4ccc(=O)n(C)c4)C[C@@H]3C)nc(=O)n(C)c21 (stereo partly drawn) [Compound A106]"
  result: "< 3.82"
- compound: "CCn1c(CC#N)nc2c(N3C[C@@H](C)N(C(C)c4ccc5c(c4F)OC(C)(C)O5)C[C@@H]3C)nc(=O)n(C)c21 (single isomer, unassigned) [Compound A175a]"
  result: 4.43
- compound: "CCn1c(CC#N)nc2c(N3C[C@@H](C)N(C(C)c4ccc5c(c4)OC(C)(C)CO5)C[C@@H]3C)nc(=O)n(C)c21 (single isomer, unassigned) [Compound A60b]"
  result: "< 3.82"
- compound: "COC[C@H]1CN(C(C)c2ccc3c(c2)OCCO3)[C@H](C)CN1c1nc(=O)n(C)c2c1nc(CC#N)n2C (single isomer, unassigned) [Compound A11a]"
  result: 4.24
- compound: "CCn1c(CC#N)nc2c(N3C[C@@H](C)N(C(C)c4cccc(OC(C)C)n4)C[C@@H]3C)nc(=O)n(C)c21 (single isomer, unassigned) [Compound A117b]"
  result: 3.84
- compound: "CCn1c(CC#N)nc2c(N3C[C@@H](C)N(C(C)c4ccc5nc(C)sc5c4)C[C@@H]3C)nc(=O)n(C)c21 (single isomer, unassigned) [Compound A56b]"
  result: 4.29
- compound: "Cc1ccc(C(C)N2C[C@H](C)N(c3c(F)c(=O)n(C)c4c3nc(CC#N)n4C)C[C@H]2C)c(C(F)(F)F)c1 (single isomer, unassigned) [Compound A15a]"
  result: "< 5.00"
